# maps each entry to its IC50
- SYSTEM_UNDER_TEST: Human autotaxin enzyme (Homo sapiens, UniProt Q13822)
- Construct: purchased R&D System
- PROCEDURE_SUMMARY: Evaluation of autotaxin inhibitor, Method B (Test Example 2): TG-mTMP fluorescence
- Type: biochemical
- COND: Assay Method B (Test Example 2), human autotaxin; read-out: Inhibitory Activity (autotaxin enzyme inhibitory activity, IC50 class)

Q. Indicate its recorded IC50; the compound in question is CCCCCn1ccc(=O)n2cc(-c3ccc(Cl)cc3)nc12 [Compound 186]
A. 10 to 100 nM

Q. Indicate its recorded IC50; the compound in question is CCCCCn1c(C)cc(=O)n2cc(-c3ccc(N(CC)CC)cc3)nc12 [Compound 159]
A. > 1000 nM

Q. Indicate its recorded IC50; the compound in question is CCCCCn1c(NCCC)cc(=O)n2cc(-c3ccc(Cl)cc3)nc12 [Compound 188]
A. 10 to 100 nM

Q. Indicate its recorded IC50; the compound in question is CCCCCn1c(C)cc(=O)n2cc(-c3ccc(C(F)(F)F)cc3)nc12 [Compound 161]
A. < 10 nM

Q. Indicate its recorded IC50; the compound in question is Cc1cc(=O)n2cc(-c3ccc(Cl)cc3)nc2n1Cc1ccc(C(=O)O)cc1 [Compound 99]
A. 100 to 1000 nM

Q. Indicate its recorded IC50; the compound in question is CCCCCn1c(N(C)Cc2ccc(C(=O)OC)cc2)cc(=O)n2cc(-c3ccc(Cl)cc3)nc12 [Compound 195]
A. < 10 nM

Q. Indicate its recorded IC50; the compound in question is CCCCCn1c(OC2CCN(C)CC2)cc(=O)n2cc(-c3ccc(Cl)cc3)nc12 [Compound 193]
A. < 10 nM

Q. Indicate its recorded IC50; the compound in question is Cc1cc(=O)n2cc(-c3ccc(Cl)cc3)nc2n1Cc1ccc(OCCCN(C)C)cc1 [Compound 89]
A. < 10 nM

Q. Indicate its recorded IC50; the compound in question is CCCCCn1c(C)c(CCOCC)c(=O)n2cc(-c3ccc(Cl)cc3)nc12 [Compound 216]
A. > 1000 nM

Q. Indicate its recorded IC50; the compound in question is CCCCCn1c(-c2ccc(N3CCN(C)CC3)cc2)cc(=O)n2cc(-c3ccc(Cl)cc3)nc12 [Compound 416]
A. < 10 nM
